# System: KynR/P_H16_RS14030 L-kynurenine biosensor (pEH136);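 note: RFP excited at 585 nm with emission read at 620 nm, culture medium blanks subtracted from fluorescence and absorbance prior to normalisation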
# assayNotes: relative induction of RFP reporter vs primary effector (background-corrected); higher = stronger activation of the biosensor
# assaySetup: inducer concentration 5 mM; 6 h; Cupriavidus necator H16; minimal medium + 0.4% gluconate
// reported relative induction of RFP reporter per item
State the answer as a number, implicitly in %.

# lookup: KynR/P_H16_RS14030 L-kynurenine biosensor (pEH136) relative induction of RFP reporter, key = O=C(O)CNC(=O)c1ccccc1
0.0257

# lookup: KynR/P_H16_RS14030 L-kynurenine biosensor (pEH136) relative induction of RFP reporter, key = Oc1ccc(O)cc1 [hydroquinone]
1.53

# lookup: KynR/P_H16_RS14030 L-kynurenine biosensor (pEH136) relative induction of RFP reporter, key = N[C@@H](Cc1c[nH]c2ccccc12)C(=O)O
65.7
